system: Mus musculus; test: Locomotor activity in maximal electroshock seizure. - indicates decrease at 100 mg/kg; type: functional
Entries and their Locomotor activity

molecule: Cc1ccc(Cc2cc3nnc(N)n3nc2C)cc1
units text: %
Locomotor activity: -8
--
molecule: Cc1nn2c(N)nnc2cc1Cc1ccccc1Cl
units text: %
Locomotor activity: -7
--
molecule: Cc1nnc(NNC(=O)c2ccccc2)cc1Cc1ccccc1
units text: %
Locomotor activity: -62
--
molecule: O=C1NC(=O)C(c2ccccc2)(c2ccccc2)N1
units text: %
Locomotor activity: -16
--
molecule: Cc1nnc(NNC(=O)Nc2ccccc2)cc1Cc1ccccc1Cl
units text: %
Locomotor activity: -3
--
molecule: Cc1nnc(NC(N)=O)cc1Cc1ccccc1
units text: %
Locomotor activity: -5
--
molecule: Cc1nn2c(C)nnc2cc1Cc1ccccc1Cl
units text: %
Locomotor activity: -1
--
molecule: CCCC(CCC)C(=O)[O-].[Na+] [VALPROATE SODIUM]
units text: %
Locomotor activity: -5
--
molecule: Cc1nnc(NNC(=O)C(C)C)cc1Cc1ccccc1Cl
units text: %
Locomotor activity: -57
--
molecule: Cc1nn2c(N)nnc2cc1Cc1ccc(F)cc1
units text: %
Locomotor activity: -15
--
molecule: Cc1nnc(NNC(=O)C(C)C)cc1Cc1ccccc1
units text: %
Locomotor activity: -67

Where do these numbers come from? They come from ChEMBL document CHEMBL1127570.
